system: HeLa; assay: Cytotoxicity against human HeLa cells after 48 hrs by MTT assay; assay type: functional, cell-based
quantity: pIC50
One number for each entry, as −log10 of the molar value.

Some solved cases for reference:
>>> print(df.to_string())
                                chem_smiles  numeric_value
0  CC1(C)CCC[C@]2(C)[C@@H](CC[C@@](C)(O)/C=C/c3ccc(Br)cc3)[C@](C)(O)CC[C@@H]12           4.34
1  COc1cccc(/C=C/[C@](C)(O)CC[C@@H]2[C@@]3(C)CCCC(C)(C)[C@@H]3CC[C@@]2(C)O)c1OC           5.41
2  Cc1cccc(/C=C/[C@](C)(O)CC[C@@H]2[C@@]3(C)CCCC(C)(C)[C@@H]3CC[C@@]2(C)O)c1C           5.43
3  CC1(C)CCC[C@]2(C)[C@@H](CC[C@@](C)(O)/C=C/c3ccc(Cl)nc3)[C@](C)(O)CC[C@@H]12           5.43

Go through the list and state pIC50 for each entry.
1. Cc1ccc(C)c(/C=C/[C@](C)(O)CC[C@@H]2[C@@]3(C)CCCC(C)(C)[C@@H]3CC[C@@]2(C)O)c1
2. CC1(C)CCC[C@]2(C)[C@@H](CC[C@@](C)(O)/C=C/c3c4ccccc4c(Br)c4ccccc34)[C@](C)(O)CC[C@@H]12
3. C=C[C@](C)(O)CC[C@@H]1[C@@]2(C)CCCC(C)(C)[C@@H]2CC[C@@]1(C)O

**A:**
1. 5.47
2. 4.34
3. 5.47

---

system: A549; assay: Cytotoxicity against human A549 cells after 48 hrs by MTT assay; assay type: functional, cell-based; conditions: A549, 48 h
pIC50: −log10 of the molar value.
Mark y for reported pIC50 of 5 or greater; mark n for anything smaller.

Known results for compounds:
>>> print(df.to_string())
                                   compound  assigned_label
0  CC1(C)CCC[C@]2(C)[C@@H](CC[C@@](C)(O)/C=C/c3cncc4ccccc34)[C@](C)(O)CC[C@@H]12               n
1  Cc1cccc(C)c1/C=C/[C@](C)(O)CC[C@@H]1[C@@]2(C)CCCC(C)(C)[C@@H]2CC[C@@]1(C)O               y
2  COc1cccc(/C=C/[C@](C)(O)CC[C@@H]2[C@@]3(C)CCCC(C)(C)[C@@H]3CC[C@@]2(C)O)c1OC               y
3  CC1(C)CCC[C@]2(C)[C@@H](CC[C@@](C)(O)/C=C/c3ccc(C(=O)O)cc3)[C@](C)(O)CC[C@@H]12               n
4  Cc1cccc(/C=C/[C@](C)(O)CC[C@@H]2[C@@]3(C)CCCC(C)(C)[C@@H]3CC[C@@]2(C)O)c1C               y
5  CC1(C)CCC[C@]2(C)[C@@H](CC[C@@](C)(O)/C=C/c3ccc(Br)cc3)[C@](C)(O)CC[C@@H]12               n

**Q:** Please check the record CC1(C)CCC[C@]2(C)[C@@H](CC[C@@](C)(O)/C=C/c3ccccc3)[C@](C)(O)CC[C@@H]12 and state if its pIC50 is at or above 5.
**A:** y

**Q:** Does COc1cccc(OC)c1/C=C/[C@](C)(O)CC[C@@H]1[C@@]2(C)CCCC(C)(C)[C@@H]2CC[C@@]1(C)O have a reported pIC50 of at least 5?
**A:** n
